# Tested on: NSC
# assay_remarks: Induction of S100 mRNA expression in Sprague-Dawley rat embryonic cortex NSC at 5 uM after 1 day by RT-PCR analysis relative to control
# Format: functional
Activity calls are given as the source filed them. No cut-off for these calls is given here.
quantity: Activity

O=S(=O)(Cc1ccccc1)NC(c1ccc(F)cc1)c1nnc(-c2ccccc2)o1 (centres undefined) : Active
O=C(NC(c1ccc(F)cc1)c1nnc(-c2ccccc2)o1)c1ccccc1 (centres undefined) : Active
CC(C)(C)OC(=O)NC(c1ccc(F)cc1)c1nnc(-c2ccccc2)o1 (centres undefined) : Active
O=S(=O)(NC(c1ccc(F)cc1)c1nnc(-c2ccccc2)o1)c1ccccc1 (centres undefined) : Active
